Molecular target: CCL3L1_HUMAN
Experiment: BLI
Answer each item with its documented Kd.

Looking up P985_AMBPA (other) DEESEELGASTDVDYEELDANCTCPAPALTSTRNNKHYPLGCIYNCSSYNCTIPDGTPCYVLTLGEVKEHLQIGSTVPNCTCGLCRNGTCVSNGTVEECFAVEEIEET , I found its Kd recorded as 45.8 nM

Looking up P1183_AMBTR (other) EAPKDDFEYDGGCPFVVLDNGTHVKPAGCSHLCNGAPETLDNIECYNVTEEVAKRMTPGIPYACWLGWCSKGECKRDNRTEVCYRGSEEE , I found its Kd recorded as 110 nM

Looking up P672_RHIPU (other) VCEVSEQEGVGEDNATEDEDYEDFFKPVTCYFANSTVGPLRPPNCTVVCTNNTAWWNDTKSDGGHCYSEYRPEKRTHSREIYNCTIGVCGNGTCIANHTYADCW , I found its Kd recorded as 2.7 nM

Next:
Looking up P983_AMBPA (other) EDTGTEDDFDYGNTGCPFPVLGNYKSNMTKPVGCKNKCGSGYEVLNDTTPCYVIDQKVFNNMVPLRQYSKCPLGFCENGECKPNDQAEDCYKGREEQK , I found its Kd recorded as 2.08 nM
